target: fibrinogen receptor (glycoprotein IIb/IIIa) on intact, gel-filtered human thrombocytes (Homo sapiens, UniProt P05106+P08514); construct: endogenous in cells; test: Inhibition of 125I-fibrinogen binding to its receptor (glycoprotein IIb/IIIa) on intact, gel-filtered human thrombocytes (Test method 2); details: intact GFP, 10 μM ADP, 40 nmol/l 125I-fibrinogen, room temperature, 30 min; read-out: Ki, inhibition of the binding of 125I-fibrinogen, ADP-stimulated
Sequence (P08514 32-887 limits assumed): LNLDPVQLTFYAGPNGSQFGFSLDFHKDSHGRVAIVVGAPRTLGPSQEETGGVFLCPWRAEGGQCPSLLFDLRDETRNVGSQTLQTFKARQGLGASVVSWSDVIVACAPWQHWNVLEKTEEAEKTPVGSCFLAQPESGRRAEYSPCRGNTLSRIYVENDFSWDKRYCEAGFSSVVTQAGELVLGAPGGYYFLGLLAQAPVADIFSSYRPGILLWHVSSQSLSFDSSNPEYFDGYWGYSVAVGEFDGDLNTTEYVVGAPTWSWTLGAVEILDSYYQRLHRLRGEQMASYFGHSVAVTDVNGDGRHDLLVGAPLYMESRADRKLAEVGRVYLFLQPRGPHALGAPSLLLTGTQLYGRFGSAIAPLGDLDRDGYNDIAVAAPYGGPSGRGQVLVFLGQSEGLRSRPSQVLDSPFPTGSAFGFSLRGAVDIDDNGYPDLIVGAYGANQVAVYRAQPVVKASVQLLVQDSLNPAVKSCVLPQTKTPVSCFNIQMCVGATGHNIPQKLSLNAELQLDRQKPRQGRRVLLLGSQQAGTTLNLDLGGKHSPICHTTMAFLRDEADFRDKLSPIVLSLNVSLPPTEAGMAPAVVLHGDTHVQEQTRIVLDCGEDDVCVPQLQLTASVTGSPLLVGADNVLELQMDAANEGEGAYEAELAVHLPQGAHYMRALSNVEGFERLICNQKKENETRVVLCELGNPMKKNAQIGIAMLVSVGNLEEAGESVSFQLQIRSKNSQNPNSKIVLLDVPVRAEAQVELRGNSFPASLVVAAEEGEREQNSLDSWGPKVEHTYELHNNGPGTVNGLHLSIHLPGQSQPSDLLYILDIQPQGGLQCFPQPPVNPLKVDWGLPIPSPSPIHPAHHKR
Sequence (P08514 891-1039 partner limits assumed): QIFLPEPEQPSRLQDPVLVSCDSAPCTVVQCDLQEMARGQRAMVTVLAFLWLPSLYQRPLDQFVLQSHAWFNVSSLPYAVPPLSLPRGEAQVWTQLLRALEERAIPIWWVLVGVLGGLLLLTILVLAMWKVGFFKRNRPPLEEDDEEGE
Sequence (P05106 27-788): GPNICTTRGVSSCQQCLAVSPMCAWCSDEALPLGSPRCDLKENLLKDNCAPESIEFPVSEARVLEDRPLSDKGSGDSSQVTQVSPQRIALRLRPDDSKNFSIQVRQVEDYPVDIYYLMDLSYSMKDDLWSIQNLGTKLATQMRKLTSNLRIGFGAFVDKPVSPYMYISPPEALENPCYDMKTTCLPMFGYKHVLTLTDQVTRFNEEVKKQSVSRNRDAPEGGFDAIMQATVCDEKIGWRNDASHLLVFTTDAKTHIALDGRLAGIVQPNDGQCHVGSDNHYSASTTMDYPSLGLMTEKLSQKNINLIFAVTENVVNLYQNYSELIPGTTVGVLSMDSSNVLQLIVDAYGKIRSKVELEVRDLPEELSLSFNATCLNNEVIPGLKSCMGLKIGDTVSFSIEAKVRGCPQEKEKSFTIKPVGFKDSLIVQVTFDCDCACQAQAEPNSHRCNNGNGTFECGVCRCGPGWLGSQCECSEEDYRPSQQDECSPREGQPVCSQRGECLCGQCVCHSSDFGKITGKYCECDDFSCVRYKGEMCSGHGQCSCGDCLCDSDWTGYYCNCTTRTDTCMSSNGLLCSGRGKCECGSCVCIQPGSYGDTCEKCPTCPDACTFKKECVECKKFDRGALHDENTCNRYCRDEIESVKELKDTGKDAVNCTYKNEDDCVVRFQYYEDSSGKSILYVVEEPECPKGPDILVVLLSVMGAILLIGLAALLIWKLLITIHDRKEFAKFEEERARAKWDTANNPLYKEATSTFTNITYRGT
Where a name gives a salt, the structure may show the parent alone.
property: Ki (nM)

{"columns": ["compound", "data_value"],
 "data": [
  ["CC1(c2ccc(C(=N)N)cc2)NC(=O)N(CC(=O)N[C@@H](CC(=O)O)c2ccccc2)C1=O (stereo partly shown) [Example 56, hydrochloride]", 21.8],
  ["CC1(c2ccc(C(=N)N)cc2)NC(=O)N(CC(=O)N[C@@H](CC(=O)O)C(=O)N[C@H](C(=O)O)c2ccccc2)C1=O (stereo partly shown) [Example 1]", 13.2]
]}

[P] CC1(c2ccc(C(=N)N)cc2)NC(=O)N(CC(=O)N[C@@H](CC(=O)O)c2ccccc2)C1=O (single isomer, unassigned) [Example 57]
[Q] CC1(c2ccc(C(=N)N)cc2)NC(=O)N(CC(=O)N[C@@H](CC(=O)O)c2ccccc2)C1=O (single isomer, unassigned) [Example 58]
Ask: Please compare: P and Q . Report which one has the smaller Ki value. Reply with the label of the item you choose.
Result: Q
(Q: 9.2 nM, P: 1970 nM)
